These entries and their values trace back to patent US20110166066A1.

Test system: Langendorff perfused rat heart
Assay: Langendorff perfused rat heart, basal conditions: concentration-response of catestatin peptides
Details: 11 to 200 nM, measured at 10 min; read-out: −(LVdP/dt)max decrement IC50
pIC50: −log10 of the molar value. No end group written: not given here.

biopolymer sequence: SSMKLSFRARAYGFRGPGPQL [WT-CST, catestatin]
experimental target: Langendorff perfused rat heart
pIC50: 7.13

----------
Tested on: Langendorff perfused rat heart
Assay: Langendorff perfused rat heart, basal conditions: concentration-response of catestatin peptides
Conditions: 11 to 200 nM, measured at 10 min; read-out: T/−t increment EC50
No end group written: not given here.

biopolymer sequence: SSMKLSFRARAYGFRGPGPQL [WT-CST, catestatin]
EC50 [nM]: 60
